This section presents compounds with their documented pEC50 values.
Tested on: HBV rcDNA in HepDE19 cells
Assay summary: HepDE19 assay with bDNA quantitation of HBV rcDNA
Type: cell-based, hepatitis B virus
Condition context: Hepatitis B virus, HepDE19, HepDE19 assay, inhibition of rcDNA formation, bDNA quantitation; read-out: DE-19bDNA EC50
As a rule, pEC50 stands for the negative log10 of the concentration, concentration in M.

Look over these answered cases.
CN(C(=O)c1cccc(C#N)c1)[C@@H]1COCc2[nH]c(=O)c3cc(F)c(F)cc3c21 [Compound 135]	6.11
CN(C(=O)c1cc2cccnn2c1)[C@@H]1COCc2[nH]c(=O)c3cc(F)c(F)cc3c21 [Compound 65]	6.82
CN(C(=O)c1ccc(C(F)F)cc1)[C@@H]1COCc2[nH]c(=O)c3cc(F)c(F)cc3c21 [Compound 111]	7.70

Read off the recorded pEC50 for CN(C(=O)c1cccc(NS(C)(=O)=O)c1)[C@@H]1COCc2[nH]c(=O)c3cc(F)c(F)cc3c21 [Compound 297]
4.68
